# PROCEDURE TEXT: Thermal stability by Differential Scanning Calorimetry
# Type: physicochemical
# PARTICULARS: DSC; Fab 1 mg/ml

{"columns": ["MOLECULE", "Tm1 (° C.) / °C"],
 "data": [
  ["26D5-295-C08-Fab-SHORT: antibody Fab fragment; VH SEQ ID NO: 62, VL SEQ ID NO: 88; sequence in Table 3 (antibody, V domains shown) VH: EVQLVESGGGLIQPGGSLRLSCAASGFQVSSNAMSWVRQAPGKGLEWVSFIYPGGRTYYADSVKGRFTISRDNSKNTLYLQMNSLRAEDTAVYYCARGGFGGGDYWGQGTLVTVSS VL: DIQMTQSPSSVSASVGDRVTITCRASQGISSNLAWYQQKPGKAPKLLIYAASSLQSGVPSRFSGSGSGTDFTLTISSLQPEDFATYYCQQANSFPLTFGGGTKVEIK", 75.3]
]}
